Tested on: NALM-6
Assay: The compound was evaluated for percent reduction of H2O2-induced H2DCFDA fluorescence in NALM-6-B-cells.
Assay type: functional, Homo sapiens
Set-up: concentration or dose not given beside the values
ASSAY_ENDPOINT: Reduction (%)
Give bare numbers, in %.

Completed entries (count: 6):
SAMPLE_SMILES	Reduction / %
S=C(NCCc1ccccc1Cl)Nc1ccc(Br)cn1	32
COc1ccc(CC/N=C(\S)Nc2ccc(Br)cn2)cc1	0
S=C(NCCc1ccccc1)Nc1ccc(Br)cn1	37.1
COc1ccccc1CC/N=C(\S)Nc1ccc(Br)cn1	94.2
COc1cccc(CC/N=C(\S)Nc2ccc(Br)cn2)c1	30.4
COc1ccc(OC)c(CCNC(=S)Nc2ccc(Br)cn2)c1	11.8

Turning now to a further compound:
Ask: Request body: readout Reduction, system NALM-6, query Fc1ccc(CC/N=C(\S)Nc2ccc(Br)cn2)cc1 . Return the value.
Reply: 2
